B1: CDC25B (parent)
chain: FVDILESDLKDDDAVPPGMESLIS

Variants of: B1
Assay: protein stability index of a GFP-peptide fusion (GPS, HEK-293T) (PSI 1-6); higher = more stable;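 also: lentivirally expressed fusions sorted by FACS into six bins by GFP to DsRed ratio, PSI derived from sequencing read proportions per bin multiplied by bin number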
Settings: c terminus: a fixed tail appended
Property Label: protein stability index
// return a plain number; no unit text

Query block: I have this variant here, F1S , and I need its recorded protein stability index.
Result block: 5.39

Query block: I have this variant here, G18L , and I need its recorded protein stability index.
Result block: 3.51

Query block: I have this variant here, D13S , and I need its recorded protein stability index.
Result block: 2.63

Query block: I have this variant here, S21W , and I need its recorded protein stability index.
Result block: 2.22

Query block: I have this variant here, V15C , and I need its recorded protein stability index.
Result block: 2.88

Query block: I have this variant here, I23K , and I need its recorded protein stability index.
Result block: 2.83

Query block: I have this variant here, D3V , and I need its recorded protein stability index.
Result block: 1.86

Query block: I have this variant here, F1W , and I need its recorded protein stability index.
Result block: 2.5

Query block: I have this variant here, K10E , and I need its recorded protein stability index.
Result block: 3.33

Query block: I have this variant here, D12L , and I need its recorded protein stability index.
Result block: 2.9

Query block: I have this variant here, L9V , and I need its recorded protein stability index.
Result block: 2.93

Query block: I have this variant here, S24E , and I need its recorded protein stability index.
Result block: 3.27

Query block: I have this variant here, V2F , and I need its recorded protein stability index.
Result block: 4.08

Query block: I have this variant here, E6S , and I need its recorded protein stability index.
Result block: 2.54

Query block: I have this variant here, E6H , and I need its recorded protein stability index.
Result block: 2.55

Query block: I have this variant here, L22F , and I need its recorded protein stability index.
Result block: 2.63

Query block: I have this variant here, E20G , and I need its recorded protein stability index.
Result block: 2.48

Query block: I have this variant here, L22R , and I need its recorded protein stability index.
Result block: 2.66

Query block: I have this variant here, S21K , and I need its recorded protein stability index.
Result block: 2.68

Query block: I have this variant here, E20R , and I need its recorded protein stability index.
Result block: 2.71

Query block: I have this variant here, P17T , and I need its recorded protein stability index.
Result block: 3.51

Query block: I have this variant here, M19F , and I need its recorded protein stability index.
Result block: 2.83

Query block: I have this variant here, E20N , and I need its recorded protein stability index.
Result block: 2.76

Query block: I have this variant here, D11F , and I need its recorded protein stability index.
Result block: 2.52

Query block: I have this variant here, V15F , and I need its recorded protein stability index.
Result block: 2.39

Query block: I have this variant here, S21A , and I need its recorded protein stability index.
Result block: 2.84

Query block: I have this variant here, M19T , and I need its recorded protein stability index.
Result block: 3.09

Query block: I have this variant here, I23H , and I need its recorded protein stability index.
Result block: 3.56

Query block: I have this variant here, P16F , and I need its recorded protein stability index.
Result block: 2.06
